Data provenance: PubChem BioAssay (NCI)

Method Summary: NCI Yeast Anticancer Drug Screen. Data for the bub3 strain (AID 167)
Measurement Conditions: S. cerevisiae bub3 mutant strain, at 50.0 µM, active compounds read high
About 79,000 compounds went through this panel and 15% of them were active in at least one assay; those are over-represented in the sample as a whole.
Provide the recorded growth inhibition for the entries that follow.
Give bare numbers, in %.

Solved cases (5 shown):
| Compound | Val |
| --- | --- |
| Cc1nn(-c2nc(-c3ccccc3)cs2)c(C)c1C | -0.5 |
| Cc1ccc(C)c(C(=O)c2ccccc2)c1C(=O)O | 7.7 |
| O=S(=O)(O)CCCCO | 6.15 |
| CC1(C)C2CC3C(=CCCC3C(=O)O)C1C2 (stereo not given) | 11.1 |
| CC(=O)NC(CSCN(C)c1nc(N(C)C)nc(N(C)C)n1)C(=O)O (stereo not given) | 8.2 |

Batch request: growth inhibition per item, same order as input.
1. CCC(C(=O)OC)C1CCCCC1 (stereo not given)
2. CC(C)(C)NCC(O)c1ccc(O)c(CO)n1 (stereo not given)
3. c1csc(-c2cc(-c3ccsc3)c(-c3cccs3)s2)c1
4. CCOC(=O)/C(F)=C/c1cccc(C#N)c1
5. O=C(Nc1ccc(Cl)cc1)Nc1nnc2nc(CC(=O)c3cccc([N+](=O)[O-])c3Cl)c(=O)[nH]n12
6. CCOC(CCc1c(C)nc[nH]c1=O)OCC

[out]
[-10.7, -8.9, -1.4, 30.7, 5.6, 16.2]

Batch request: growth inhibition per item, same order as input.
1. O=S1c2ccccc2NC(c2ccc3ccccc3c2)CC1c1ccccc1 (stereo not given)
2. CCOc1ccc(/C=C2\N=C(c3cccc(Cl)c3)OC2=O)cc1

[out]
1. 5.05
2. 17.2

Batch request: growth inhibition per item, same order as input.
1. CC(O)c1ccc(C(O)/C(=N\NC(=O)c2ccncc2)c2nc3ccc([N+](=O)[O-])cc3[nH]c2=O)cc1 (stereo not given)
2. OCCNc1ncnc2nc[nH]c12
3. Cc1nc(/C=C2\C(=O)C=Cc3ccccc32)c(O)o1
4. O=C(O)c1cc(N=Nc2ccc([N+](=O)[O-])cc2S(=O)(=O)O)ccc1O
5. Cc1nc2ccc(Cl)cc2c(=O)[nH]1
6. O=C1CCCC(=O)C1=Cc1c[nH]c2ccccc12

[out]
-5.1
-46.5
16
-19.8
-16.2
-16.1

Batch request: growth inhibition per item, same order as input.
1. COC(=O)C1=C2C3(O)CC4CC5C3CCC(C)N5C24C2CCC(O)C(OC)C2C1OC(=O)c1ccccc1 (stereo not given)
2. Cc1cc(=O)[nH]c(N/N=C/c2ccc(O)cc2)n1
3. Cc1ccc(/C(O)=C/C(=O)C(=O)NN=C(c2ccccc2)c2ccccc2)cc1
4. COc1ccc2ccc3c(c2c1)C(=O)C(CC(N)=O)C3 (stereo not given)

[out]
1: -30.4; 2: -30.4; 3: 20.3; 4: -4.1

Batch request: growth inhibition per item, same order as input.
1. CCCCC/C(C)=C(\C#N)C(=O)OC
2. COC(=O)C(=[N+]=[N-])C(=O)c1ccc([N+](=O)[O-])cc1

[out]
[-34, 20.6]
